Recorded values, source PubChem BioAssay AID1963970.

Property: pIC50; scope: individual molecules
Test system: 931267-113-T-J1-PDC multicell spheroid viability;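 further: viability read 7 days after compound addition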
experiment.notes: Anticancer human tumor 931267-113-T-J1-PDC patient-derived colon adenocarcinoma cell line growth inhibition [PI3K]
measurement.setup: curve of first compound; second compound 3.16 µM
pIC50: −log10 of the molar value.
measure.name: pIC50

>  <molecule>
CC1(C)CCC(Nc2ncc(C(F)(F)F)c(-c3c[nH]c4c(P(C)(C)=O)c(C#N)ccc34)n2)CN1 (stereo not drawn) + CC(Nc1ncnc2nc[nH]c12)c1cc2cccc(Cl)c2c(=O)n1-c1ccccc1

>  <measure.name>
pIC50

>  <test.result>
< 5.00

$$$$
>  <molecule>
CC(C)NCC(C(=O)N1CCN(c2ncnc3c2C(C)CC3O)CC1)c1ccc(Cl)cc1 (stereo not drawn) + Cc1nc(NC(=O)N2CCCC2C(N)=O)sc1-c1ccnc(C(C)(C)C(F)(F)F)c1

>  <measure.name>
pIC50

>  <test.result>
< 5.00

$$$$
>  <molecule>
Cn1nccc1Nc1nccc(-c2ccn(C(CO)c3ccc(Cl)c(F)c3)c(=O)c2)n1 (stereo not drawn) + Cc1nc(NC(=O)N2CCCC2C(N)=O)sc1-c1ccnc(C(C)(C)C(F)(F)F)c1

>  <measure.name>
pIC50

>  <test.result>
6.19

$$$$
